- System: NCI-H2228
- MEASUREMENT NOTES: relative viability (nuclei count vs DMSO), 5 days (fraction); higher = more cells survive
- ASSAY CONTEXT: first compound 0.01 µM
ATTRIBUTE MEASURED: relative viability

Field request: relative viability | item: O=c1cc(N2CCOCC2)oc2c(-c3cccc4c3sc3ccccc34)cccc12 + O=C(CCCCCCC(=O)Nc1ccccc1)NO [Vorinostat] (partner 1 µM)
0.669

Requested read-out: relative viability. Entry: CCN(CC)CCCCNc1ncc2cc(-c3cc(OC)cc(OC)c3)c(NC(=O)NC(C)(C)C)nc2n1 + Nc1nc2[nH]cc(CCc3ccc(C(=O)N[C@@H](CCC(=O)O)C(=O)O)cc3)c2c(=O)[nH]1 [Pemetrexed] (partner 0.2 µM)
0.318

I would be grateful if you could share the reported relative viability for CCN(CC)CCCCNc1ncc2cc(-c3cc(OC)cc(OC)c3)c(NC(=O)NC(C)(C)C)nc2n1 + N=C(N)NC(=N)NCCc1ccccc1 [Phenformin] (partner 250 µM) .
0.341

Form field: reported relative viability of CCN(CC)CCCCNc1ncc2cc(-c3cc(OC)cc(OC)c3)c(NC(=O)NC(C)(C)C)nc2n1 + CS(=O)(=O)N1CCN(Cc2cc3nc(-c4cccc5[nH]ncc45)nc(N4CCOCC4)c3s2)CC1 [Pictilisib] (partner 1 µM)
0.441

---

- Tested on: NCI-H650
- MEASUREMENT NOTES: relative viability (nuclei count vs DMSO), 5 days (fraction); higher = more cells survive
- ASSAY CONTEXT: first compound 0.01 µM
relative viability reference

Recorded relative viability, per entry:
O=c1cc(N2CCOCC2)oc2c(-c3cccc4c3sc3ccccc34)cccc12 + CS(=O)(=O)CCNCc1ccc(-c2ccc3ncnc(Nc4ccc(OCc5cccc(F)c5)c(Cl)c4)c3c2)o1 [Lapatinib] (partner 2 µM) ... 0.769
CCN(CC)CCCCNc1ncc2cc(-c3cc(OC)cc(OC)c3)c(NC(=O)NC(C)(C)C)nc2n1 + N=C(N)NC(=N)NCCc1ccccc1 [Phenformin] (partner 250 µM) ... 0.417

Need relative viability of CCN(CC)CCCCNc1ncc2cc(-c3cc(OC)cc(OC)c3)c(NC(=O)NC(C)(C)C)nc2n1 + Cc1cc(Nc2cc(N3CCN(C)CC3)nc(Sc3ccc(NC(=O)C4CC4)cc3)n2)n[nH]1 [Tozasertib] (partner 0.1 µM) , thanks.
0.714

---

- Test system: PC-14
- MEASUREMENT NOTES: relative viability (nuclei count vs DMSO), 5 days (fraction); higher = more cells survive
- ASSAY CONTEXT: first compound 0.08 µM
ATTRIBUTE MEASURED: relative viability
Simply state the number, no unit and no words.

Field: example entries. Status: answers known.
O=c1cc(-c2cccc3c2Sc2ccccc2S3)oc(N2CCOCC2)c1 + COc1cccc2cc(-c3nc([C@H]4CC[C@H](C(=O)O)CC4)n4ncnc(N)c34)[nH]c12 [OSI-027] (partner 0.5 µM) ... 0.884
COc1nc(C)cnc1NS(=O)(=O)c1cccnc1-c1ccc(-c2nnco2)cc1 [Zibotentan] + CC(C)C[C@H](NC(=O)[C@H](Cc1ccccc1)NC(=O)c1cnccn1)B(O)O [Bortezomib] (partner 0.002 µM) ... 0.872
O=c1cc(-c2cccc3c2Sc2ccccc2S3)oc(N2CCOCC2)c1 + Nc1nc2[nH]cc(CCc3ccc(C(=O)N[C@@H](CCC(=O)O)C(=O)O)cc3)c2c(=O)[nH]1 [Pemetrexed] (partner 0.2 µM) ... 0.138

// relative viability lookup, key: COc1nc(C)cnc1NS(=O)(=O)c1cccnc1-c1ccc(-c2nnco2)cc1 [Zibotentan] + COc1cc2c(Oc3ccc(NC(=O)C4(C(=O)Nc5ccc(F)cc5)CC4)cc3F)ccnc2cc1OCCCN1CCOCC1 [Foretinib] (partner 0.25 µM)
1.03

So what's the measured relative viability for this one? COc1nc(C)cnc1NS(=O)(=O)c1cccnc1-c1ccc(-c2nnco2)cc1 [Zibotentan] + O=C(c1cc(Cc2n[nH]c(=O)c3ccccc23)ccc1F)N1CCN(C(=O)C2CC2)CC1 [Olaparib] (partner 8 µM)
0.206
